- assay: NCI Yeast Anticancer Drug Screen. Data for the rad50 strain (AID 155);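 also: 0% = growth of vehicle-only cultures of the same strain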
- test settings: S. cerevisiae rad50 strain growth inhibition; at 5.0 µM (retest, dose inferred, filed as 0.5)
About 79,000 compounds went through this panel and 15% of them were active in at least one assay; those are over-represented in the sample as a whole. Active and inactive are the calls of the source. Rule as the data show it: active = growth inhibition above about 70%; inactive = the rest.
Select the correct class. Options are active, inactive and nothing else.

# compound, cat
measured = [
    ("Cc1ccc(C2SCC(=O)N2c2ccc(-n3c(-c4ccccc4)nc4ccccc4c3=O)cc2)cc1 (stereo not drawn)", "inactive"),
    ("COC(=O)N1C2C=CC(=O)C(C=C2)N1C(=O)OC (stereo not drawn)", "inactive"),
    ("Cc1cc(C(=O)c2ccccc2)ccc1O", "inactive"),
    ("C1=CN2C(c3ccccc3)=NN(c3ccccc3)[C@@H]2c2ccccc21", "inactive"),
]

From here, focus on the item given below.
Query :: # outcome recorded in this test, key = "O=C1/C(=C/c2ccccc2[N+](=O)[O-])COc2ccccc21"
Result :: inactive

----------
Here, each record is paired with measured growth inhibition data.
- assay: NCI Yeast Anticancer Drug Screen. Data for the rad50 strain (AID 155);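 also: 0% = growth of vehicle-only cultures of the same strain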
- test settings: S. cerevisiae rad50 strain growth inhibition; at 50.0 µM (retest, dose inferred, filed as 5.0); stronger effect = higher value
- Method: Growth inhibition of yeast strains with defined genetic alterations is measured as a screen for potential anti-cancer activity. Selected strains with alterations in DNA damage repair or cell cycle control were exposed to compounds and growth inhibition was measured relative to vehicle treated controls. The strain used in this assay is rad50
Compounds without any hit were thinned out: in the full panel of roughly 79,000, 15% have a hit. Active and inactive are the calls of the source. No stated cut-off is given here; in the data, active means growth inhibition above about 70%; inactive means the rest.

See these solved cases before continuing.
# molecule, growth inhibition
data = [
    ("COc1ccc(C2=C(Cl)C(=O)N(c3ccc(OC)cc3)C(=O)C2(Cl)Cl)cc1", "82% (active)"),
    ("Cc1ccnc2sc3ccccc3c(=O)c12", "96% (active)"),
    ("O=C(O)CCCCCCCCC(=O)O.[Ag]", "99% (active)"),
    ("NC(=O)CCSC(=S)N1CCOCC1", "-16% (inactive)"),
    ("Clc1ccccc1NN(Cc1ccccn1)c1ccccc1Cl", "54% (inactive)"),
]

Please look at the following molecule next.
The reported growth inhibition of the molecule "COc1ccc(C2N(Cc3ccc(Cl)cc3)CCN2Cc2ccc(Cl)cc2)cc1" was 70% (active)

----------
- assay: NCI Yeast Anticancer Drug Screen. Data for the rad50 strain (AID 155);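 also: 0% = growth of vehicle-only cultures of the same strain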
- test settings: S. cerevisiae rad50 strain growth inhibition; at 50.0 µM (retest, dose inferred, filed as 5.0); stronger effect = higher value
- Protocol: Growth inhibition of yeast strains with defined genetic alterations is measured as a screen for potential anti-cancer activity. Selected strains with alterations in DNA damage repair or cell cycle control were exposed to compounds and growth inhibition was measured relative to vehicle treated controls. The strain used in this assay is rad50
This is part of a sample that, as a whole, favours compounds with a hit. Of some 79,000 tested, about 15% had one in any assay.
Returns one of Satisfied or Not satisfied; Satisfied when growth inhibition is >= 80%.

These solved cases illustrate the format of a correct answer.
# molecule, cat
data = [
    ("C/C=C(\\C)[C@H](O)C(COCc1ccccc1)NS(=O)(=O)c1ccc(C)cc1 (stereo partly specified)", "Not satisfied"),
    ("COc1ccccc1/C=C1\\Sc2scc(-c3ccc(O)c(O)c3)[n+]2C1=O", "Satisfied"),
    ("CCOSc1ccccc1", "Not satisfied"),
    ("BrCc1ccc2ccc3ccc(CBr)nc3c2n1", "Satisfied"),
    ("C[C@]12C/C(=C/C(F)(F)F)C(=O)C[C@@H]1CC[C@@H]1[C@@H]2CC[C@]2(C)[C@@H](C(=O)O)CC[C@@H]12", "Satisfied"),
]

From here, focus on the item given below.
Query :: Entry COc1ccc(C2c3cn[nH]c3CC3CCCCC32)cc1 (stereo unspecified) : is its growth inhibition no less than 80%?
Result :: Satisfied

----------
- assay: NCI Yeast Anticancer Drug Screen. Data for the cln2 rad14 strain (AID 165);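 also: 0% = growth equal to vehicle treated cultures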
- test settings: S. cerevisiae cln2 rad14 strain, at 50.0 µM
About 79,000 compounds went through this panel and 15% of them were active in at least one assay; those are over-represented in the sample as a whole. Active and inactive are the calls of the source. No stated cut-off is given here; in the data, active means growth inhibition above about 70%; inactive means the rest.
Select the correct class. Options are YES = active, NO = inactive and nothing else.

These solved cases illustrate the format of a correct answer.
# molecule, cat
rows = [
    ("O=[N+]([O-])c1ccc2c(c1)CCc1ccccc1-2", "NO"),
    ("c1cc[c]([Sn]([CH]2c3ccccc3-c3ccccc32)([CH]2c3ccccc3-c3ccccc32)[CH]2c3ccccc3-c3ccccc32)cc1", "YES"),
]

Query :: # outcome recorded in this test, key = CCN(CC)CCN(C)c1ccc(CO)c2c1C(=O)c1ccccc1S2=O (stereo not given)
Result :: NO

Query :: # outcome recorded in this test, key = "O=C1C(=O)c2cc(Br)cc([N+](=O)[O-])c2-c2ccc(Br)cc21"
Result :: YES

Query :: # outcome recorded in this test, key = "O=C(COc1ccc(Cl)c(Cl)c1)Nc1ccc[n+](Cc2ccc(Cl)c(Cl)c2)c1"
Result :: YES

Query :: # outcome recorded in this test, key = "O=c1oc2ccccc2c(O)c1/C=N\c1nc(-c2ccccc2)cs1"
Result :: NO

Query :: # outcome recorded in this test, key = "O=[N+]([O-])/C=C/c1ccco1"
Result :: YES

Query :: # outcome recorded in this test, key = "O=C1Oc2ccccc2C(=O)/C1=C/N1C(=O)/C(=C/c2ccccc2)NC1=S"
Result :: NO

Query :: # outcome recorded in this test, key = COc1nc(NC2OC(CO)C(O)C(O)C2O)c(Cl)c(=O)[nH]1 (stereo not given)
Result :: NO

Query :: # outcome recorded in this test, key = O=C(c1ccc(Oc2ccccc2)cc1)C(C(c1ccccc1)N1CCOCC1)N1CCOCC1 (stereo not given)
Result :: NO

----------
- assay: NCI Yeast Anticancer Drug Screen. Data for the cln2 rad14 strain (AID 165);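 also: 0% = growth equal to vehicle treated cultures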
- test settings: S. cerevisiae cln2 rad14 strain, at 5.0 µM (retest, dose inferred, filed as 0.5)
The panel holds about 79,000 compounds, 15% with a hit somewhere; the sample as a whole holds those more often. Active and inactive are the calls of the source. Rule as the data show it: active = growth inhibition above about 70%; inactive = the rest.
Select the correct class. Options are active, inactive and nothing else.

These solved cases illustrate the format of a correct answer.
# compound, cat
data = [
    ("CCCCCC/C=C\\C=O", "inactive"),
    ("CC(=O)CC1(O)C(=O)Nc2ccc(Br)cc21 (configuration not stated)", "inactive"),
    ("ONC1=Nc2ccccc2OCc2cc(Br)c(Br)cc2COc2ccccc2N=C1NO", "inactive"),
]

Query :: # outcome recorded in this test, key = "O=C(NCCNCCNCCNC(=O)c1cc(-c2ccccc2)nc2ccccc12)c1cc(-c2ccccc2)nc2ccccc12"
Result :: inactive

Query :: # outcome recorded in this test, key = "CN(C)/C(N)=N\c1nc2ccc(Cl)cc2s1"
Result :: inactive

Query :: # outcome recorded in this test, key = "O/N=C1/CCCC/C1=C/c1ccc(Cl)cc1"
Result :: inactive

Query :: # outcome recorded in this test, key = "Cc1cc(=O)n(C)c2c(C)cccc12"
Result :: inactive

----------
- assay: NCI Yeast Anticancer Drug Screen. Data for the rad50 strain (AID 155);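 also: 0% = growth of vehicle-only cultures of the same strain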
- test settings: S. cerevisiae rad50 strain growth inhibition; at 5.0 µM (retest, dose inferred, filed as 0.5); stronger effect = higher value
Compounds without any hit were thinned out: in the full panel of roughly 79,000, 15% have a hit.
Returns one of True or False; True when growth inhibition is >= 20%.

# compound, cat
measured = [
    ("CCOC(=O)C(=Cc1ccccc1Br)C(=O)OCC", "False"),
    ("C=C1C(=O)[C@]23C[C@H]1CC[C@H]2[C@@]12CO[C@@H](O)[C@@H]1C(C)(C)[C@@H](O)C[C@@H]2OC3=O", "False"),
    ("CCOSc1ccccc1", "False"),
    ("O=C(O)CSc1ccc(N=C=S)cc1", "False"),
]

Query :: Entry Cc1cc(Cl)cc2c1NC(=O)C2(O)C/C(=N/NC(=O)CC#N)c1cccc([N+](=O)[O-])c1 (stereo unspecified) : is its growth inhibition no less than 20%?
Result :: False

Query :: Entry Nc1nc(Cl)cc(NCC2(CO)CC(CCCc3ccccc3)C2)n1 (stereo unspecified) : is its growth inhibition no less than 20%?
Result :: True

----------
- assay: NCI Yeast Anticancer Drug Screen. Data for the rad50 strain (AID 155);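 also: 0% = growth of vehicle-only cultures of the same strain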
- test settings: S. cerevisiae rad50 strain growth inhibition; at 50.0 µM (retest, dose inferred, filed as 5.0)
The panel holds about 79,000 compounds, 15% with a hit somewhere; the sample as a whole holds those more often. Active and inactive are the calls of the source. Cut-off read from the data, not from the text of the source: active = growth inhibition above about 70%; inactive = the rest.
Select the correct class. Options are class 1 (active), class 0 (inactive) and nothing else.

These solved cases illustrate the format of a correct answer.
# compound, cat
records = [
    ("CCOC(=O)C1=C(C)NC2=C(C(=O)N(c3ccccc3)C2c2ccccc2)C1c1ccccc1 (stereo not drawn)", "class 0"),
    ("COC1/C=C\\OC2(C)Oc3c(C)c(O)c4c(c3C2=O)C2=NC(C)(C)N(c3ccccc3)C2=C(NC(=O)/C(C)=C\\C=C\\C(C)C(O)C(C)C(O)C(C)C(OC(C)=O)C1C)C4=O (stereo not drawn)", "class 1"),
]

Query :: # outcome recorded in this test, key = "CC(C)(C)c1cc2c3c(c1)Oc1cc(C(C)(C)C)cc4c1C3(O)c1c(cc(C(C)(C)C)cc1O4)O2"
Result :: class 1

Query :: # outcome recorded in this test, key = O=C1C=CC(=O)C2C3C=CC(CC3)C12 (stereo not drawn)
Result :: class 0

Query :: # outcome recorded in this test, key = "Oc1c(Cl)ccc2cccnc12"
Result :: class 1

Query :: # outcome recorded in this test, key = "CC(=O)OCc1c2ccccc2c(C)c2c1cc(F)c1ccccc12"
Result :: class 1

Query :: # outcome recorded in this test, key = "NC(=O)C#CC#CC#CCO"
Result :: class 0
